Cited source for all entries: patent US10793547B2

# Tested on: Rat hepatocytes
# PROTOCOL_NOTES: Hepatocyte clearance, rat hepatocytes; note: time not given here
# Type: in vitro ADME
# MEASUREMENT_CONTEXT: percent unchanged
Measured Hepatocyte clearance-Rat Rat hepatocytes CL pct_unchanged, listed per entry for reference.
OBSERVABLE: Hepatocyte clearance-Rat Rat hepatocytes CL pct_unchanged (%)

{"STRUCTURE": "Cc1c(S(=O)(=O)NC(=O)c2ccc(-n3ccc(OCCC4(C(F)(F)F)CC4)n3)nc2N2C[C@@H](C)CC2(C)C)cnn1C", "MEASUREMENT_UNIT": "%", "READOUT_VALUE": 50}
{"STRUCTURE": "Cc1c(S(=O)(=O)NC(=O)c2ccc(-n3ccc(OCC4C(C)(C)C4(C)C)n3)nc2N2C[C@@H](C)CC2(C)C)cnn1C", "MEASUREMENT_UNIT": "%", "READOUT_VALUE": 0}
{"STRUCTURE": "Cc1nn(C)cc1S(=O)(=O)NC(=O)c1ccc(-n2ccc(OCCC3(C(F)(F)F)CC3)n2)nc1N1C[C@@H](C)CC1(C)C", "MEASUREMENT_UNIT": "%", "READOUT_VALUE": 97}

---

Collected CYP3A4 Induction-PXR human PXR internal Max % Activity values appear next to each entry.
# TARGET_SYSTEM: human PXR (Homo sapiens)
# Construct: host or cells: DPX-2 cell line (derived from HepG2)
# PROTOCOL_NOTES: PXR assay: PXR mediated CYP3A4 induction in DPX-2 cell line
# Assay type: cell-based
# MEASUREMENT_CONTEXT: DPX-2 cells
OBSERVABLE: CYP3A4 Induction-PXR human PXR internal Max % Activity (%)

{"MOLECULE": "Cc1c(S(=O)(=O)NC(=O)c2ccc(-n3ccc(OCCC4(C(F)(F)F)CC4)n3)nc2N2C[C@@H](C)CC2(C)C)cnn1C", "READOUT_VALUE": 2}
{"MOLECULE": "C[C@@H]1CN(c2nc(-n3ccc(OCC4(C(F)(F)F)CC4)n3)ccc2C(=O)NS(=O)(=O)c2cnn(C(C)(C)C)c2)C(C)(C)C1", "READOUT_VALUE": 10}
{"MOLECULE": "Cc1nn(C)cc1S(=O)(=O)NC(=O)c1ccc(-n2ccc(OCC3(C(F)(F)F)CC3)n2)nc1N1CC(C(C)(C)C)CC1(C)C (racemic) [Compound 40]", "READOUT_VALUE": 13}
{"MOLECULE": "Cc1nn(C)cc1S(=O)(=O)NC(=O)c1ccc(-n2ccc(OCCC(C3CC3)C3CC3)n2)nc1N1C[C@@H](C)CC1(C)C", "READOUT_VALUE": 2}
{"MOLECULE": "Cc1nn(C)c(C)c1S(=O)(=O)NC(=O)c1ccc(-n2ccc(OCCC3(C(F)(F)F)CC3)n2)nc1N1C[C@@H](C)CC1(C)C", "READOUT_VALUE": 5}
{"MOLECULE": "Cc1nn(C)cc1S(=O)(=O)NC(=O)c1ccc(-n2ccc(OCCC3(C(F)(F)F)CC3)n2)nc1N1C[C@@H](C)CC1(C)C", "READOUT_VALUE": 3}

---

# PROTOCOL_NOTES: MDCK-Wild Type permeability, 96 well + 0.1% BSA
# Type: in vitro ADME
# MEASUREMENT_CONTEXT: dog, MDCK, A-B direction, read-out: MDCK-Wild Type-Permeability 96 well + 0.1% BSA Papp compound (A-B)
// classify: if (Papp A→B < 6 ×10⁻⁶ cm/s) 1 else 0

{"MOLECULE": "Cc1c(S(=O)(=O)NC(=O)c2ccc(-n3ccc(OCC(C)(C)C(F)(F)F)n3)nc2N2C[C@@H](C)CC2(C)C)cnn1C", "CLASS_ASSIGNMENT": 0}
{"MOLECULE": "Cc1nn(C)cc1S(=O)(=O)NC(=O)c1ccc(-n2ccc(OCC3(C(F)(F)F)CCC3)n2)nc1N1C[C@@H](C)CC1(C)C", "CLASS_ASSIGNMENT": 0}
{"MOLECULE": "Cc1c(S(=O)(=O)NC(=O)c2ccc(-n3ccc(OCC4CC45CC5)n3)nc2N2C[C@@H](C)CC2(C)C)cnn1C (stereo partly drawn)", "CLASS_ASSIGNMENT": 1}
{"MOLECULE": "Cc1n[nH]cc1S(=O)(=O)NC(=O)c1ccc(-n2ccc(OCC(C)(C)C(F)(F)F)n2)nc1N1C[C@@H](C)CC1(C)C", "CLASS_ASSIGNMENT": 1}
{"MOLECULE": "C[C@@H]1CN(c2nc(-n3ccc(OCC4(C(F)(F)F)CC4)n3)ccc2C(=O)NS(=O)(=O)c2cnn(C)c2)C(C)(C)C1", "CLASS_ASSIGNMENT": 1}

---

# TARGET_SYSTEM: human PXR (Homo sapiens, UniProt O75469)
# Construct: host or cells: DPX-2 cell line (derived from HepG2)
# Sequence (O75469 1-434): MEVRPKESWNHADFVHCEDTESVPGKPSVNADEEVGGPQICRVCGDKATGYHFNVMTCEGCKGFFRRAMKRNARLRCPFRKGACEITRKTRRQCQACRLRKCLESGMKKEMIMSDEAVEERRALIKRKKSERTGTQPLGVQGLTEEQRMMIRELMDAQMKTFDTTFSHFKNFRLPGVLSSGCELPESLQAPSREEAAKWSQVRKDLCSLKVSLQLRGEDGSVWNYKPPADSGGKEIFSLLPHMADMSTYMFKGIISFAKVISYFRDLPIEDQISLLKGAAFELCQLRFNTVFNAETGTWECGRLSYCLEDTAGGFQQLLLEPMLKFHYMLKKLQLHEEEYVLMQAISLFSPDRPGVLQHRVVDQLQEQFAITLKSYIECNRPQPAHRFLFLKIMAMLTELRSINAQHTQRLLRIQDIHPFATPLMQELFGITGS
# PROTOCOL_NOTES: PXR assay: PXR mediated CYP3A4 induction in DPX-2 cell line
# Assay type: cell-based
# MEASUREMENT_CONTEXT: DPX-2 cells
The following compounds are shown together with reported CYP3A4 Induction-PXR human PXR internal Max % Activity values.
OBSERVABLE: CYP3A4 Induction-PXR human PXR internal Max % Activity

{"COMPOUND": "Cc1nn(C)cc1S(=O)(=O)NC(=O)c1ccc(-n2ccc(OCC3(C(F)(F)F)CC3)n2)nc1N1CC(C(C)(C)C)CC1(C)C (single isomer, unassigned) [Compound 53]", "READOUT_VALUE": "7%"}
{"COMPOUND": "CCn1cc(S(=O)(=O)NC(=O)c2ccc(-n3ccc(OCC4(C(F)(F)F)CC4)n3)nc2N2C[C@@H](C)CC2(C)C)cn1 [Compound 7]", "READOUT_VALUE": "4%"}
{"COMPOUND": "Cc1nn(C)cc1S(=O)(=O)NC(=O)c1ccc(-n2ccc(O[C@H]3C[C@@H]4CC[C@H]3C4)n2)nc1N1C[C@@H](C)CC1(C)C [Compound 51]", "READOUT_VALUE": "6%"}

---

# PROTOCOL_NOTES: MDCK-Wild Type permeability, 96 well + 0.1% BSA
# Format: in vitro ADME
# MEASUREMENT_CONTEXT: dog, MDCK, A-B direction, read-out: MDCK-Wild Type-Permeability 96 well + 0.1% BSA Papp compound (A-B)
Criterion: Papp A→B strictly under 3 ×10⁻⁶ cm/s. Met: true. Not met: false.

{"COMPOUND": "Cc1nn(C)c(C)c1S(=O)(=O)NC(=O)c1ccc(-n2ccc(OCC3(C(F)(F)F)CC3)n2)nc1N1C[C@@H](C)CC1(C)C", "CLASS_ASSIGNMENT": "false"}
{"COMPOUND": "CCn1cc(S(=O)(=O)NC(=O)c2ccc(-n3ccc(OCC4(C(F)(F)F)CC4)n3)nc2N2C[C@@H](C)CC2(C)C)cn1", "CLASS_ASSIGNMENT": "false"}
{"COMPOUND": "Cc1nn(C)c(C)c1S(=O)(=O)NC(=O)c1ccc(-n2ccc(OCCC3(C(F)(F)F)CC3)n2)nc1N1C[C@@H](C)CC1(C)C", "CLASS_ASSIGNMENT": "false"}
{"COMPOUND": "Cc1c(S(=O)(=O)NC(=O)c2ccc(-n3ccc(OCCC4(C(F)(F)F)CC4)n3)nc2N2C[C@@H](C)CC2(C)C)cnn1C", "CLASS_ASSIGNMENT": "true"}
{"COMPOUND": "Cc1nn(C)cc1S(=O)(=O)NC(=O)c1ccc(-n2ccc(OCC3C4CCC3CC4)n2)nc1N1C[C@@H](C)CC1(C)C (stereo partly drawn)", "CLASS_ASSIGNMENT": "true"}
{"COMPOUND": "Cc1nn(C)cc1S(=O)(=O)NC(=O)c1ccc(-n2ccc(OCCC3(C(F)(F)F)CC3)n2)nc1N1C[C@@H](C)CC1(C)C", "CLASS_ASSIGNMENT": "true"}
{"COMPOUND": "Cc1nn(C)cc1S(=O)(=O)NC(=O)c1ccc(-n2ccc(OCC(C)(C)C(F)(F)F)n2)nc1N1C[C@H](C)CC1(C)C", "CLASS_ASSIGNMENT": "false"}
{"COMPOUND": "Cc1nn(C)cc1S(=O)(=O)NC(=O)c1ccc(-n2ccc(OCCC(C3CC3)C3CC3)n2)nc1N1C[C@@H](C)CC1(C)C", "CLASS_ASSIGNMENT": "true"}
{"COMPOUND": "Cc1nn(C)cc1S(=O)(=O)NC(=O)c1ccc(-n2ccc(OCC(C)(C)C(F)(F)F)n2)nc1N1CC(CO)CC1(C)C (stereo not drawn)", "CLASS_ASSIGNMENT": "true"}
{"COMPOUND": "C[C@@H]1CN(c2nc(-n3ccc(OCC4(C(F)(F)F)CC4)n3)ccc2C(=O)NS(=O)(=O)c2cn[nH]c2)C(C)(C)C1", "CLASS_ASSIGNMENT": "true"}
{"COMPOUND": "Cc1nn(C)cc1S(=O)(=O)NC(=O)c1ccc(-n2ccc(O[C@H]3C[C@@H]4CC[C@H]3C4)n2)nc1N1C[C@@H](C)CC1(C)C", "CLASS_ASSIGNMENT": "true"}
